# credit: paper PMC12951568

test: Log P, partition between n-octanol and PBS; assay type: physicochemical; details: n-octanol/PBS buffer; partition coefficient between 1-octanol and PBS
Answer each item with its documented logP.
Just the number.

stdin: Please give the measured logP for this compound: C=Cc1c(C)c2cc3nc(cc4[nH]c(cc5nc(cc1[nH]2)C(C)=C5CCC(=O)O)c(CCC(=O)OC)c4C)[C@@]1(C)C3=CC=C(C(=O)OC)[C@H]1C(=O)OC [verteporfin, reference compound]
stdout: 2.51

stdin: Please give the measured logP for this compound: O=S(=O)([O-])c1ccc2c(c1)-c1nc-2nc2[nH]c(nc3nc(nc4[nH]c(n1)c1ccccc41)-c1ccc(S(=O)(=O)[O-])cc1-3)c1ccc(S(=O)(=O)[O-])cc21.[Na+].[Na+].[Na+] [A9H]
stdout: -1.35

---

assay: Absorption and fluorescence emission spectra in DMF; assay type: physicochemical; settings: in DMF
measured-quantity: λF, fluorescence emission maximum (nm)
Only the number, expressed in nm, is required.

stdin: Please give the measured λF, fluorescence emission maximum for this compound: NCCc1ccc(Oc2cccc3c2C2=NC3=Nc3c4ccccc4c4[n]3[Zn][n]3c(c5ccccc5c3=N2)=NC2=NC(=N4)c3ccccc32)cc1 [C15Zn]
stdout: 684

stdin: Please give the measured λF, fluorescence emission maximum for this compound: "COCCOCCOCCOCCOc1ccc(OCCOCCOCCOCCOC)c2c1C1=NC2=Nc2c3ccccc3c3[n]2[Zn][n]2c(c4ccccc4c2=N1)=NC1=NC(=N3)c2ccccc21"
stdout: 702

stdin: Please give the measured λF, fluorescence emission maximum for this compound: "Cc1cc(Cn2cc[n+](C)c2)c(Oc2cc3c(cc2Oc2c(Cn4cc[n+](C)c4)cc(C)cc2Cn2cc[n+](C)c2)C2=Nc4c5ccccc5c5[n]4[Zn][n]4c(c6ccccc6c4=NC3=N2)=NC2=NC(=N5)c3ccccc32)c(Cn2cc[n+](C)c2)c1.[I-].[I-].[I-].[I-]"
stdout: 682

---

test system: MCF-7 (human breast adenocarcinoma); experiment: Photodynamic activity (phototoxicity, neutral red uptake) on MCF-7; assay type: cell-based; settings: 12 h incubation, Xe-lamp 15 min, λ > 570 nm, 11.2 J/cm^2; mean ± SD; t.w. = this work
measured-quantity: EC50 (nM)
Only the number, expressed in nM, is required.

stdin: Please give the measured EC50 for this compound: OCc1cc(CO)cc(OCCCCSC2=C(SCCCCOc3cc(CO)cc(CO)c3)C3=Nc4c5ccccc5c5[n]4[Mg][n]4c(c6ccccc6c4=NC4=NC(=N5)c5ccccc54)=NC2=N3)c1 [N2Mg]
stdout: 190

stdin: Please give the measured EC50 for this compound: NCCc1ccc(Oc2cccc3c2C2=NC3=Nc3c4ccccc4c4[n]3[Zn][n]3c(c5ccccc5c3=N2)=NC2=NC(=N4)c3ccccc32)cc1 [C15Zn]
stdout: 50

stdin: Please give the measured EC50 for this compound: C[n+]1cccc(Oc2ccc3c(c2)C2=NC3=Nc3c4cc(Oc5ccc[n+](C)c5)ccc4c4[n]3[Zn][n]3c(c5ccc(Oc6ccc[n+](C)c6)cc5c3=NC3=NC(=N4)c4cc(Oc5ccc[n+](C)c5)ccc43)=N2)c1.F[P-](F)(F)(F)(F)F.F[P-](F)(F)(F)(F)F.F[P-](F)(F)(F)(F)F.F[P-](F)(F)(F)(F)F [C5Zn-PF 6]
stdout: 100

stdin: Please give the measured EC50 for this compound: C[n+]1cccc(Oc2cc3c(cc2Oc2ccc[n+](C)c2)C2=Nc4c5cc(Oc6ccc[n+](C)c6)c(Oc6ccc[n+](C)c6)cc5c5[n]4[Zn][n]4c(c6cc(Oc7ccc[n+](C)c7)c(Oc7ccc[n+](C)c7)cc6c4=NC4=NC(=N5)c5cc(Oc6ccc[n+](C)c6)c(Oc6ccc[n+](C)c6)cc54)=NC3=N2)c1.[I-].[I-].[I-].[I-].[I-].[I-].[I-].[I-] [C6Zn]
stdout: 110

---

assay: Fluorescence quantum yield, comparative method; type: physicochemical; conditions: in DMF; ZnPc as reference
Entry flag: 1 if ΦF, fluorescence quantum yield reaches 0.2; -1 if it does not.

stdin: Threshold query (ΦF, fluorescence quantum yield >= 0.2) on O=S(=O)([O-])c1ccc2c(c1)-c1nc-2nc2[nH]c(nc3nc(nc4[nH]c(n1)c1ccccc41)-c1ccc(S(=O)(=O)[O-])cc1-3)c1ccc(S(=O)(=O)[O-])cc21.[Na+].[Na+].[Na+] [A9H]
stdout: 1

stdin: Threshold query (ΦF, fluorescence quantum yield >= 0.2) on CSc1cc2c(cc1SC)C1=Nc3c4cc(SC)c(SC)cc4c4[n]3[Zn][n]3c(c5cc(SC)c(SC)cc5c3=NC2=N1)=NC1=NC(=N4)c2cc(Oc3c(Cn4cc[n+](C)c4)cc(C)cc3Cn3cc[n+](C)c3)c(Oc3c(Cn4cc[n+](C)c4)cc(C)cc3Cn3cc[n+](C)c3)cc21.[I-].[I-].[I-].[I-] [C4Zn]
stdout: 1

stdin: Threshold query (ΦF, fluorescence quantum yield >= 0.2) on CC[N+](CC)(CC)CCSc1ccc(SCC[N+](CC)(CC)CC)c2c1C1=NC2=Nc2c3c(SCC[N+](CC)(CC)CC)ccc(SCC[N+](CC)(CC)CC)c3c3[n]2[Zn][n]2c(c4c(SCC[N+](CC)(CC)CC)ccc(SCC[N+](CC)(CC)CC)c4c2=NC2=NC(=N3)c3c(SCC[N+](CC)(CC)CC)ccc(SCC[N+](CC)(CC)CC)c32)=N1.[I-].[I-].[I-].[I-].[I-].[I-].[I-].[I-] [C9Zn]
stdout: -1

stdin: Threshold query (ΦF, fluorescence quantum yield >= 0.2) on COCCOCCOCCOCCOc1ccc(OCCOCCOCCOCCOC)c2c1C1=NC2=Nc2c3ccccc3c3[n]2[Zn][n]2c(c4ccccc4c2=N1)=NC1=NC(=N3)c2ccccc21 [N1Zn]
stdout: 1

stdin: Threshold query (ΦF, fluorescence quantum yield >= 0.2) on CC[N+](CC)(CC)CCSc1cc2c(cc1SCC[N+](CC)(CC)CC)C1=Nc3c4cc(SCC[N+](CC)(CC)CC)c(SCC[N+](CC)(CC)CC)cc4c4[n]3[Zn][n]3c(c5cc(SCC[N+](CC)(CC)CC)c(SCC[N+](CC)(CC)CC)cc5c3=NC3=NC(=N4)c4cc(SCC[N+](CC)(CC)CC)c(SCC[N+](CC)(CC)CC)cc43)=NC2=N1.[I-].[I-].[I-].[I-].[I-].[I-].[I-].[I-] [C8Zn]
stdout: 1

stdin: Threshold query (ΦF, fluorescence quantum yield >= 0.2) on Cc1cc(OCc2cn(CCOCCOCCO)nn2)c(Oc2cc3c(cc2Oc2c(OCc4cn(CCOCCOCCO)nn4)cc(C)cc2OCc2cn(CCOCCOCCO)nn2)C2=Nc4c5ccccc5c5[n]4[Zn][n]4c(c6ccccc6c4=NC3=N2)=NC2=NC(=N5)c3ccccc32)c(OCc2cn(CCOCCOCCO)nn2)c1 [N3Zn]
stdout: 1
